Tested on: Staphylococcus aureus
ASSAY TEXT: Antibacterial activity against Staphylococcus aureus ATCC 29213 assessed as inhibition of visible growth of bacteria incubated for 24 hrs by CLSI protocol based broth-dilution method
Type: functional
MIC values by entry
Put down the number, then write its unit next to it.

Below: 3 molecules and their reported MIC.
C=C[C@]1(C)C[C@@H](OC(=O)CSc2ccc(NC(=O)c3ccc(F)c(B(O)O)c3)cc2)[C@]2(C)[C@H](C)CC[C@]3(CCC(=O)[C@H]32)[C@@H](C)[C@@H]1O; 0.063 µg/mL
C=C[C@]1(C)C[C@@H](OC(=O)CSc2cccc(NC(=O)c3ccc(C)c(B(O)O)c3)c2)[C@]2(C)[C@H](C)CC[C@]3(CCC(=O)[C@H]32)[C@@H](C)[C@@H]1O; 0.031 µg/mL
C=C[C@]1(C)C[C@@H](OC(=O)CSc2cccc(NC(=O)c3ccc(B(O)O)c(F)c3)c2)[C@]2(C)[C@H](C)CC[C@]3(CCC(=O)[C@H]32)[C@@H](C)[C@@H]1O; 0.063 µg/mL

Give the reported MIC for C=C[C@]1(C)C[C@@H](OC(=O)CSc2cccc(NC(=O)c3cccc(B4OC(C)(C)C(C)(C)O4)c3)c2)[C@]2(C)[C@H](C)CC[C@]3(CCC(=O)[C@H]32)[C@@H](C)[C@@H]1O (system: Staphylococcus aureus).
0.063 µg/mL

Further, for C=C[C@]1(C)C[C@@H](OC(=O)CS[C@@H]2CC[C@@H](NC(=O)c3ccc4c(c3)B(O)OC4)C[C@H]2O)[C@]2(C)[C@H](C)CC[C@]3(CCC(=O)[C@H]32)[C@@H](C)[C@@H]1O ?
0.063 µg/mL
